Reference source: a melting point compilation (Tetko et al.; mined from patent text by program, amines drawn as free bases though some values may be those of a salt)

readout type: melting point

Worked examples, 5 compounds total:
| compound | melting point |
| --- | --- |
| CCCCC(=O)c1c(O)oc(=O)c(C(=O)CCCC)c1O | 84 to 85 °C |
| CS(=O)(=O)c1ccc(C(=O)C2C(=O)CCCC2=O)c(Cl)c1OCc1cc(-c2ccccc2)no1 | 72 to 78 °C |
| Cc1c(F)ccc(C#N)c1Cl | 63 to 65 °C |
| O=C1NC(=O)c2c1c(-c1ccccc1Cl)cc1oc3cc(OS(=O)(=O)C(F)(F)F)c(O)cc3c21 | 237 to 240 °C |
| COc1cccc(C(C)CC(=O)Nc2sc3c(c2C#N)CCNC3)c1 (racemic) | 197 to 200 °C |

Query: # query: melting point of entry COc1cc(Nc2c(C#N)cnc3cc(-c4csc(CN5CCOCC5)c4)c(OC)cc23)c(Cl)cc1Cl
Reply: 148 to 150 °C

Query: Suppose we examine the compound CCS(=O)(=O)Cc1cccc(-c2nc(=O)c3ccccc3s2)n1 ; what melting point value has been reported?
Reply: 188 to 190 °C

Query: I would be grateful if you could share the reported melting point for CC(C)(Oc1ccc(Cl)cc1)C(=O)NCCO[N+](=O)[O-] .
Reply: 81 to 82 °C

Query: Can you share its melting point? I mean this compound: c1ccc(CN2C[C@@H]3Cc4cc5ccccc5n4C[C@@H]3C2)cc1 (relative stereo)
Reply: 91 to 93 °C
